targetOrSystem: Luciferin 4-monooxygenase (Photinus pyralis) (UniProt P08659)
Sequence (P08659 whole entry, looked up): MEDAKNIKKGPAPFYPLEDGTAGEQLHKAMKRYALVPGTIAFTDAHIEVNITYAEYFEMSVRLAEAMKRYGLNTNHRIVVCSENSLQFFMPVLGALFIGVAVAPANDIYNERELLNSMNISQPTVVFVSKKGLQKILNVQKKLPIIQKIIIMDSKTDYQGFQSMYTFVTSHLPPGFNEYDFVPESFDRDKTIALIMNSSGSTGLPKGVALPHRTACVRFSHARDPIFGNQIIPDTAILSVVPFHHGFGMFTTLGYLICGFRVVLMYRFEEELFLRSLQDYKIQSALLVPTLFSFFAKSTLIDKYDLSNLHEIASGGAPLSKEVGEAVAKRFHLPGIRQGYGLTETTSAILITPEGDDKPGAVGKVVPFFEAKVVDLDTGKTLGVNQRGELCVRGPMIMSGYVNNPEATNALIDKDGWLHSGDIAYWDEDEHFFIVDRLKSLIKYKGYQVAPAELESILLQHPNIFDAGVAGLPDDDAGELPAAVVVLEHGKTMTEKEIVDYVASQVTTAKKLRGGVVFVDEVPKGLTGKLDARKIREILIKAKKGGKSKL
testDetails: qHTS Assay for Inhibitors of Firefly Luciferase; further: nearly all actives have a fitted effect of over 40% in size
particulars: purified firefly luciferase, luminescence, 8 min; series mostly up to 57.1 µM
In all, about 72,000 compounds went through this assay and about 1,600 (2.2%) were called active. The call rests on the fitted dose curve; in most records, active means well fitted inhibition curve with a large enough effect; inconclusive means small, poorly fitted or top-dose-only effect; inactive means flat fitted curve, though single readings scatter. The list comes from a sample in which actives are over-represented; it also holds close analogues and randomly drawn compounds.
Tick one outcome: 1 (yes) for active, 0 (no) for inactive

Check out these entries, answers already filled in.
{"columns": ["smilesText", "classLabel"],
 "data": [
  ["COc1ccc(NC(=O)c2ccc(OC)cc2)cc1", "1 (yes)"],
  ["Cc1ccc(Cn2ccc(NC(=O)c3cc(C(C)C)on3)n2)cc1", "0 (no)"],
  ["COC(=O)CNS(=O)(=O)c1ccc(Cc2ccc(S(=O)(=O)NCC(=O)OC)cc2)cc1", "0 (no)"]
]}

Query string: Tell me the assay call for `CC(=O)c1c(C)[nH]c(C(=O)NCCCN2CCCC2)c1C` please.
Result string: 0 (no)

Query string: Tell me the assay call for `CC(C)C(=O)Nc1cccc(C(=O)Nc2ccc3c(c2)OCO3)c1` please.
Result string: 1 (yes)

Query string: Tell me the assay call for `Cc1ccc(C(=O)Nc2ccc3c(c2)OCO3)cc1S(=O)(=O)N1CCCCC1` please.
Result string: 0 (no)

Query string: Tell me the assay call for `COc1ccc2occ(C(=O)c3ccc(N=C(C)N(C)C)cc3)c2c1` please.
Result string: 0 (no)
